system: EKVX; assay: NCI60 antitumor screening; type: cell-based, human; conditions: 10 μM one-dose
readout.type: GI% (%)
Quick reminder: number only, in %, skip the unit.

Previously resolved entries follow.
> print(dat)
                           structure.string  readout.type  readout.value
1  Cc1ccc(CSc2nc(-c3ccc(F)cc3)c(C#N)c(N3CCOCC3)n2)cc1           GI%          13.10
2  N#Cc1c(-c2ccc(F)cc2)nc(SCc2ccc([N+](=O)[O-])cc2)[nH]c1=O           GI%          12.04
3  Cc1ccc(CSc2nc(Cl)c(C#N)c(-c3ccc(F)cc3)n2)cc1           GI%          20.92

## Task Fill blank: measured GI% of the compound "N#Cc1c(-c2ccc(F)cc2)nc(SCc2ccc([N+](=O)[O-])cc2)nc1N1CCOCC1" is ____.
## Result 60.74

## Task Request: "N#Cc1c(Cl)nc(SCc2ccc(F)cc2)nc1-c1ccc(F)cc1"
## Result 10.91

## Task Request: "N#Cc1c(-c2ccc(F)cc2)nc(SCc2ccc(F)cc2)nc1N1CCNCC1"
## Result 98.71

## Task Request: "N#Cc1c(Cl)nc(SCc2ccc([N+](=O)[O-])cc2)nc1-c1ccc(F)cc1"
## Result 20.38

## Task Request: "N#Cc1c(-c2ccc(F)cc2)nc(SCc2ccc(F)cc2)nc1N1CCOCC1"
## Result 39.92

====

tested on: HT29; test: NCI60 antitumor screening; type: cell-based, human; details: 10 μM one-dose
Kindly return true (1) if reported GI% is no lower than 40%; return false (0) if it is lower.

Some solved cases for reference:
> print(dat)
                                   compound  class.name
1  N#Cc1c(Cl)nc(SCc2ccc(F)cc2)nc1-c1ccc(F)cc1 [3b]   false (0)
2  N#Cc1c(-c2ccc(F)cc2)nc(SCc2ccc([N+](=O)[O-])cc2)[nH]c1=O [2c]   false (0)
3  N#Cc1c(-c2ccc(F)cc2)nc(SCc2ccc([N+](=O)[O-])cc2)nc1N1CCOCC1 [4c]   false (0)
4  Cc1ccc(CSc2nc(-c3ccc(F)cc3)c(C#N)c(=O)[nH]2)cc1 [2d]   false (0)
5  N#Cc1c(Cl)nc(SCc2ccc([N+](=O)[O-])cc2)nc1-c1ccc(F)cc1 [3c]    true (1)

Shift focus to the following entry.
## Task Threshold query (GI% >= 40%) on Cc1ccc(CSc2nc(Cl)c(C#N)c(-c3ccc(F)cc3)n2)cc1 [3d]
## Result true (1)

====

tested on: SK-MEL-28; assay: NCI60 antitumor screening; type: cell-based, human; settings: Homo sapiens; 10 μM single dose; SK-MEL-28 (melanoma); read-out: growth inhibition percent (GI%)
readout.type: inhibition at 10 µM (%)
Quick reminder: number only, in %, skip the unit.

> print(dat)
                                   compound  units.text  readout.value
1  CN1CCN(c2nc(SCc3ccc(F)cc3)nc(-c3ccc(F)cc3)c2C#N)CC1 [4j]           %           16.2

We next turn to a different compound, shown below.
## Task Fill blank: measured inhibition at 10 µM of the compound CN1CCN(c2nc(SCc3ccc([N+](=O)[O-])cc3)nc(-c3ccc(F)cc3)c2C#N)CC1 [4k] is ____.
## Result 14.4
